Molecular target: RORα (Homo sapiens)
Construct: expressed in transfected cells; host or cells: HEK293T
Sequence (P35398 272-510 limits assumed): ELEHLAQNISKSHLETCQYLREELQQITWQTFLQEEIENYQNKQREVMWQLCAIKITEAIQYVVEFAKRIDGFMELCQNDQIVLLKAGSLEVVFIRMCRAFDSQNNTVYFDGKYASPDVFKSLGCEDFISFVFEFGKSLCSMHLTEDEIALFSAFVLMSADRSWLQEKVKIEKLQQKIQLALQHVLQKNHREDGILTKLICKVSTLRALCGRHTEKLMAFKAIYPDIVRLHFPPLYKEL
Experiment: Gal4-RORα LBD / UAS luciferase cotransfection assay
Assay type: cell-based
Details: 10 μM
I'd be grateful if you could share measured RORα repression, fold change over DMSO for these entries.
Write down the numeric answer in fold change over DMSO and omit the unit.

What the record says about O=S(=O)(c1ccccc1)N1CCN(Cc2ccc(-c3ccc(C(O)(C(F)(F)F)C(F)(F)F)cc3)cc2)CC1 : RORα repression, fold change over DMSO is 1

The compound listed as O=C(Nc1ccccc1)N1CCN(Cc2ccc(-c3ccc(C(O)(C(F)(F)F)C(F)(F)F)cc3)cc2)CC1 has a reported RORα repression, fold change over DMSO of 0.9

response.value for OC(c1ccc(-c2ccc(CN3CCN(Cc4ccncc4)CC3)c(Cl)c2)cc1)(C(F)(F)F)C(F)(F)F (field: RORα repression, fold change over DMSO) = 0.4

Measured RORα repression, fold change over DMSO of O=C(Cc1ccccc1)N1CCN(Cc2ccc(-c3ccc(C(O)(C(F)(F)F)C(F)(F)F)cc3)cc2)CC1 : 0.5

Measured RORα repression, fold change over DMSO of OC(c1ccc(-c2ccc(CN3CCN(Cc4nc5ccccc5s4)CC3)cc2)cc1)(C(F)(F)F)C(F)(F)F : 0.4

RORα repression, fold change over DMSO measured on O=S(=O)(Cc1ccccc1)N1CCN(Cc2ccc(-c3ccc(C(O)(C(F)(F)F)C(F)(F)F)cc3)cc2)CC1 = 1

Summary for this compound, OC(c1ccc(-c2ccc(CN3CCN(C4CC4)CC3)cc2)cc1)(C(F)(F)F)C(F)(F)F : RORα repression, fold change over DMSO is 0.55
